Biological target: T1, IL-11 (Cat. 12225-HNCE, Sino Biological Inc.) (UniProt P20809 22-199, limits assumed)
T1 sequence (looked up): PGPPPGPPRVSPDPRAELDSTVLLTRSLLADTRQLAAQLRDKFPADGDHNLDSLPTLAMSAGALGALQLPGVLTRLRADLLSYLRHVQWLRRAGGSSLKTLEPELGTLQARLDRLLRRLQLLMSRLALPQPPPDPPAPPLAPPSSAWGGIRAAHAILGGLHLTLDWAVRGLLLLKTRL
Assay: cell-based or functional assay
MEASURED QUANTITY: Blocking activity (IC50), STAT3-luc reporter (µg/mL)
A number alone suffices; assume µg/mL.

hz8C8-VHm2 + hz8C8-VL (antibody, human IgG1, kappa, V domains shown, human IgG1 constant regions) VH: EVQLVESGGGLVQPGGSLRLSCAASGFTFSSFGMHWVRQAPGKGLEWVAYITAGSNTIYYADTVKGRFTISRDNAKNSLYLQMNSLRAEDTAVYYCAREYYSYDEGFAYWGQGTLVTVSS VL: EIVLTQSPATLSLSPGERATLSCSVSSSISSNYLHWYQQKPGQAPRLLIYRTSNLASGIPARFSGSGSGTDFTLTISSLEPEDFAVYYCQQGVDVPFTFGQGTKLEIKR ... 0.51

Moving on to another binder below.
Record summary for hz8C8-VHm1-m11 + hz8C8-VLm7-m2 (antibody, human IgG1, kappa, V domains shown, human IgG1 constant regions) VH: EVQLVESGGGLVQPGGSLRLSCAASGFTFSSFGMHWVRQAPGKGLEWVAYITPGSNTIYYADTVKGRFTISRDNAKNSLYLQMNSLRAEDTAVYYCAREYYSYDEGPAYWGQGTLVTVSS VL: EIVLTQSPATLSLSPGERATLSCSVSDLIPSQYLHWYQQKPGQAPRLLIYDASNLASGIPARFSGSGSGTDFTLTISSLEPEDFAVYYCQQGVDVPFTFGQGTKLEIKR : reported Blocking activity (IC50), STAT3-luc reporter = 0.01

The reported numbers originate from patent US20250197488A1.
